A collection of molecules and their measured GI50
- Test system: UACC-62
- procedure details: Antiproliferative activity against human UACC62 cells assessed as growth inhibition
- Assay type: functional
Express it in nM; write the number only.

Before answering, review these 3 worked examples.
COc1cnc2c(c1)C(=O)c1c-2n(CCCN2CCC(O)CC2)c(=O)c2cc(Cl)ccc12; 190
COc1cnc2c(c1)C(=O)c1c-2n(CCCNC(C)C)c(=O)c2cc(Cl)ccc12; 303
COc1cnc2c(c1)C(=O)c1c-2n(CCCN2CCC(O)CC2)c(=O)c2cc(F)ccc12; 240

For reference, reported GI50 for COc1cnc2c(c1)C(=O)c1c-2n(CCCNC2=NCCS2)c(=O)c2cc(F)ccc12 stands at 344

For reference, reported GI50 for COc1cnc2c(c1)C(=O)c1c-2n(CCCN2CCOCC2)c(=O)c2cc(F)ccc12 stands at 235

For reference, reported GI50 for COc1cnc2c(c1)C(=O)c1c-2n(CCCN2CCNCC2)c(=O)c2cc(F)ccc12 stands at 1260

For reference, reported GI50 for CNCCCn1c2c(c3ccc(Cl)cc3c1=O)C(=O)c1cc(OC)cnc1-2 stands at 574

For reference, reported GI50 for CNCCCn1c2c(c3ccc(F)cc3c1=O)C(=O)c1cc(OC)cnc1-2 stands at 608

----------
- procedure details: Toxicity in zebrafish embryo assessed as survival at 10 uM preincubated for 1 hr measured after 24 to 120 hrs (reference value: 82.5 to 86.2%)
- Set-up: species or system Danio rerio
- run parameters: zebrafish embryos
assay readout: survival at 10 µM (%)
Express it in %; write the number only.

Before answering, review these 2 worked examples.
COc1cnc2c(c1)C(=O)c1c-2n(CCCn2ccnc2)c(=O)c2cc([N+](=O)[O-])ccc12; 0
COc1cnc2c(c1)C(=O)c1c-2n(CCCn2ccnc2)c(=O)c2cc(F)ccc12; 0

Would you kindly look at the next entry?
For reference, reported survival at 10 µM for COc1cnc2c(c1)C(=O)c1c-2n(CCCn2ccnc2)c(=O)c2cc(Cl)ccc12 stands at 0

The reported measurements were obtained from ChEMBL document CHEMBL4038309.
